Settings: 413.15 K; Liquid; Closed cell (Static) method
Parameter vapor or sublimation pressure: see the listing below.
assay.readout: vapor or sublimation pressure (kPa)

> print(dat)
                                   compound                  assay.readout  output.unit  value.observed
1              CCCCCCCCCCCCCC [tetradecane]  vapor or sublimation pressure          kPa           3.017
2  CCCCCCCCCCCCCC(=O)OCC [ethyl tetradecanoate]  vapor or sublimation pressure          kPa          0.3448
3       CCCCCCCCCC(=O)OCC [ethyl decanoate]  vapor or sublimation pressure          kPa           3.829
4           CCCCCC(=O)OCC [ethyl hexanoate]  vapor or sublimation pressure          kPa           46.18
